Measured values drawn from paper PMC8587750 for this set.

Tested on: intracellular amastigotes of T. cruzi
Assay: Activity against intracellular amastigotes in infected Vero cells (Dm28c-Luc, 72 h)
Type: cell-based, Trypanosoma cruzi
Conditions: CC50 of Vero cells/IC50 of intracellular amastigote
Measurement Kind: Intracellular Amastigotes SI
Just the number, please, no unit attached.

[
  {
    "Compound": "Clc1cccc(-n2cc(C3=NCCN3)cn2)c1 [Compound 3b]",
    "Intracellular Amastigotes SI": 9.48
  }
]

The record that follows has no Intracellular Amastigotes SI shown yet.
Quickly give me recorded Intracellular Amastigotes SI for Clc1ccc(-n2cc(C3=NCCN3)cn2)cc1Cl [Compound 3e]
6.26

###

Test system: intracellular parasites in T. cruzi-infected microtissue
Assay: 3D-microtissue-based phenotypic screening (T. cruzi-infected Vero spheroids)
Assay type: cell-based, Trypanosoma cruzi
Details: 72 h treatment; Bz 100 µM
Measurement Kind: viability of intracellular parasites in microtissue, luminescence intensity (ALU)

Worked examples, 3 compounds total:
[
  {
    "Compound": "Cc1ccc(-n2cc(C3=NCCN3)cn2)cc1Cl",
    "Assayed System": "intracellular parasites in T. cruzi-infected microtissue",
    "Value Reported": "12,683 ± 3976 ALU"
  },
  {
    "Compound": "Clc1ccc(-n2cc(C3=NCCN3)cn2)cc1",
    "Assayed System": "intracellular parasites in T. cruzi-infected microtissue",
    "Value Reported": "36,130 ± 5764 ALU"
  },
  {
    "Compound": "Brc1ccc(-n2cc(C3=NCCN3)cn2)cc1",
    "Assayed System": "intracellular parasites in T. cruzi-infected microtissue",
    "Value Reported": "39,001 ± 9952 ALU"
  }
]

Specify reported viability of intracellular parasites in microtissue, luminescence intensity (ALU) for the compound shown: O=C(Cn1ccnc1[N+](=O)[O-])NCc1ccccc1 [Bz, benznidazole, reference compound]
18,858 ± 3726 ALU

###

System: intracellular amastigotes of T. cruzi
Assay: Activity against intracellular amastigotes in infected Vero cells (Dm28c-Luc, 72 h)
Type: cell-based, Trypanosoma cruzi
Conditions: Trypanosoma cruzi; Vero cells infected with Dm28c-Luc, 72 h; read-out: Trypanocidal Activity Intracellular Amastigotes IC50
Measurement Kind: IC50 (µM)
Write it as a number; the unit µM goes unstated.

Print intracellular amastigotes of T. cruzi IC50 for O=C(Cn1ccnc1[N+](=O)[O-])NCc1ccccc1 [Bz, benznidazole, reference compound] .
4.67

###

System: intracellular amastigotes of T. cruzi
Assay: Activity against intracellular amastigotes in infected Vero cells (Dm28c-Luc, 72 h)
Assay type: cell-based, Trypanosoma cruzi
Settings: Trypanosoma cruzi, Vero, 72 h, Vero cells infected with Dm28c-Luc, 72 h; read-out: Trypanocidal Activity Intracellular Amastigotes IC50
Measurement Kind: IC50 (µM)
Reply with just the number (in µM).

// known answers, use as guide
[
  {
    "Smiles Text": "c1ccc(-n2cc(C3=NCCN3)cn2)cc1",
    "Unit Of Measure": "µM",
    "IC50": 91.8
  },
  {
    "Smiles Text": "COc1ccc(-n2cc(C3=NCCN3)cn2)cc1",
    "Unit Of Measure": "µM",
    "IC50": 71.8
  },
  {
    "Smiles Text": "Fc1cccc(-n2cc(C3=NCCN3)cn2)c1",
    "Unit Of Measure": "µM",
    "IC50": 64.1
  },
  {
    "Smiles Text": "Brc1cccc(-n2cc(C3=NCCN3)cn2)c1",
    "Unit Of Measure": "µM",
    "IC50": 26.9
  },
  {
    "Smiles Text": "Clc1cccc(-n2cc(C3=NCCN3)cn2)c1",
    "Unit Of Measure": "µM",
    "IC50": 28.2
  },
  {
    "Smiles Text": "Clc1ccc(-n2cc(C3=NCCN3)cn2)cc1Cl",
    "Unit Of Measure": "µM",
    "IC50": 76.5
  }
]

Moving on to another compound below.
Give the reported IC50 for this compound. Clc1ccc(-n2cc(C3=NCCN3)cn2)c(Cl)c1
56.6

###

Attribute: melting point

[
  {
    "Molecule": "Cc1nn(-c2cccc(Cl)c2)c(N)c1C1=NCCN1",
    "melting point": "116 to 120 °C"
  },
  {
    "Molecule": "NC(=O)c1cnn(-c2ccc(Cl)cc2Cl)c1N",
    "melting point": "212 to 214 °C"
  },
  {
    "Molecule": "Clc1cccc(-n2cc(C3=NCCN3)cn2)c1",
    "melting point": "120 to 124 °C"
  },
  {
    "Molecule": "Cc1nn(-c2cc(Cl)cc(Cl)c2)c(N)c1C1=NCCN1",
    "melting point": "193 to 194 °C"
  },
  {
    "Molecule": "CC1CN=C(c2cnn(-c3ccc(Cl)c(Cl)c3)c2N)N1 (centres unmarked)",
    "melting point": "191 to 193 °C"
  }
]

State its melting point for this molecule: NC(=O)c1cnn(-c2ccc(F)cc2)c1N
232 to 234 °C

Supply recorded melting point for Clc1ccc(-n2cc(C3=NCCN3)cn2)cc1Cl here.
185 to 186 °C

Look up and state reported melting point for Cc1nn(-c2ccc(Cl)c(Cl)c2)c(N)c1C1=NCCN1
221 to 224 °C

###

CC50 at 72 h values for the compounds below.
Assay: Cytotoxicity in vitro assay (ATP, CellTiter Glo, 72 h)
Type: cell-based
Settings: African green monkey, Vero cells

Previously resolved entries follow.
[
  {
    "Compound": "Fc1cccc(-n2cc(C3=NCCN3)cn2)c1",
    "CC50 at 72 h": "> 500 µM"
  },
  {
    "Compound": "CC1CN=C(c2cnn(-c3ccc(Cl)c(Cl)c3)c2N)N1 (centres unmarked)",
    "CC50 at 72 h": "343 µM"
  }
]

Fill in reported CC50 at 72 h for this entry: c1ccc(-n2cc(C3=NCCN3)cn2)cc1
> 500 µM

Report CC50 at 72 h for Cc1nn(-c2cccc(Cl)c2)c(N)c1C1=NCCN1
> 500 µM

Write down CC50 at 72 h measured for item Fc1ccc(-n2cc(C3=NCCN3)cn2)cc1
> 500 µM

###

The entries below come with measured melting point values attached.

[
  {
    "Molecule": "c1ccc(-n2cc(C3=NCCN3)cn2)cc1 [Compound 3a]",
    "melting point": "149 to 150 °C"
  },
  {
    "Molecule": "NC(=O)c1cnn(-c2cccc(Cl)c2)c1 [Compound 1b]",
    "melting point": "202 to 204 °C"
  }
]

Please give the documented melting point of NC(=O)c1cnn(-c2cccc(F)c2)c1N [Compound 2h]
178 to 182 °C

###

# reported melting point; entries follow

Here's what some known entries look like.
[
  {
    "Molecule": "NC(=O)c1cnn(-c2cccc(Cl)c2Cl)c1",
    "melting point": "220 to 224 °C"
  },
  {
    "Molecule": "NC(=O)c1cnn(-c2ccc(Cl)cc2)c1",
    "melting point": "234 to 236 °C"
  },
  {
    "Molecule": "NC(=O)c1cnn(-c2ccc(F)cc2)c1",
    "melting point": "244 to 246 °C"
  },
  {
    "Molecule": "COc1ccc(-n2cc(C(N)=O)cn2)cc1",
    "melting point": "220 to 222 °C"
  },
  {
    "Molecule": "NC(=O)c1cnn(-c2cccc(F)c2)c1",
    "melting point": "206 to 208 °C"
  }
]

Answer with reported melting point of CC1CN=C(c2cnn(-c3cccc(Cl)c3)c2N)N1 (stereo not shown)
169 to 172 °C

Give melting point for the following molecule: NC(=O)c1cnn(-c2cccc(Br)c2)c1
212 to 214 °C

Give the reported value of melting point for this record: COc1ccc(-n2cc(C3=NCCN3)cn2)cc1
196 to 197 °C

Specify measured melting point for NC(=O)c1cnn(-c2cccc(Cl)c2)c1N .
168 to 170 °C

Return value of melting point for input NC(=O)c1cnn(-c2cc(Cl)cc(Cl)c2)c1N , no commentary.
184 to 186 °C

Give a short answer stating reported melting point for Fc1ccc(-n2cc(C3=NCCN3)cn2)cc1 .
210 to 212 °C

Note melting point for the molecule shown: NC(=O)c1cnn(-c2cccc(Cl)c2Cl)c1N
160 to 164 °C

Tell me measured melting point for CC1CN=C(c2cnn(-c3cc(Cl)cc(Cl)c3)c2N)N1 (stereo not shown) please.
189 to 192 °C

Return the recorded melting point value; entry: COc1ccc(-n2ncc(C(N)=O)c2N)cc1
214 to 218 °C

Find the measured melting point of NC(=O)c1cnn(-c2ccc(Cl)c(Cl)c2)c1N and report it.
204 to 212 °C

// fetch melting point given entry Clc1cccc(Cl)c1-n1cc(C2=NCCN2)cn1
221 to 223 °C
